test system: SN12C renal; experiment: NCI tumour cell line growth inhibition, 48 h
# GI50 annotations

>  <smiles.text>
COc1ccccc1NS(=O)(=O)c1ccc2oc(SC(C)C)nc2c1

>  <system.name>
SN12C renal

>  <GI50>
15500 nM

$$$$

Ask: Lookup: GI50 / SN12C renal / NC(=S)N=Nc1c(O)c2ccccc2c2ccccc12
Reply: 1730 nM

Ask: Enter reported GI50 observed with SN12C renal for O=C(CC(=O)c1cccc(Cl)c1)c1cccc(Cl)c1
Reply: 2380 nM

Ask: Which measured GI50 belongs to Cc1cnc(Nc2ccc(N3CCN(C)CC3)cc2)nc1Nc1ccc(Cl)c(NS(=O)(=O)C(C)(C)C)c1 , tested on SN12C renal?
Reply: 542 nM

###

system: SW-620 colon; assay: NCI tumour cell line growth inhibition, 48 h; in the data active = GI50 below about 0.43 µM; inactive = the rest
Outcome field: choose from TRUE for active, FALSE for inactive

Solved entries:
>  <molecule>
COc1cc(/C=C/c2cc(/C=C/c3ccc(O)c(OC)c3)n(C(=O)Nc3ccc(Cl)cc3)n2)ccc1O

>  <group>
FALSE

$$$$
>  <molecule>
Cc1cc(Nc2cc(N3CCN(C)CC3)nc(Sc3ccc(NC(=O)C4CC4)cc3)n2)n[nH]1

>  <group>
FALSE

$$$$
>  <molecule>
CCOC(=O)c1cnn2c3ccccc3n(S(=O)(=O)c3ccc(OC)cc3)c12

>  <group>
TRUE

$$$$
>  <molecule>
O=C(Nc1cc(Oc2cc(F)c(NC(=O)C3(C(=O)Nc4ccc(F)cc4)CC3)cc2F)ccn1)C1CC1

>  <group>
FALSE

$$$$
>  <molecule>
Cc1cc(Cl)ccc1Nc1nc(C(F)(F)F)ccc1C(=O)N/N=C/c1ccccc1Cl

>  <group>
FALSE

$$$$

Ask: Assay result, entry CCCCCCCC(=O)OCC(=O)[C@]1(O)Cc2c(O)c3c(c(O)c2[C@@H](OC2CC(N)C(O)C(C)O2)C1)C(=O)c1c(OC)cccc1C3=O (some centres undefined) — outcome?
Reply: TRUE

Ask: What call does the record list for NC(=Nc1ccc(N)cc1)C(N)=Nc1ccc(N)cc1 ?
Reply: FALSE

Ask: Query: recorded result category for O=C(Nc1ccccc1O)c1ccc(NS(=O)(=O)c2cccc3cccnc23)cc1 in this test
Reply: FALSE

Ask: So what was the verdict on CN(C)c1ccc(/C=c2/c3ccccc3n3c2c2cc(F)ccc2[n+]3C)cc1 in this test?
Reply: FALSE

###

system: KM12 colon; experiment: NCI tumour cell line growth inhibition, 48 h
Entries and their TGI

Sample records with TGI:
>  <molecule>
C=CCOc1ccccc1C1(O)c2ccccc2C2=NCCCN21 (stereo unspecified)

>  <TGI>
> 100 µM

$$$$
>  <molecule>
CN1CCN(Cc2ccc3c(NNC(=O)c4ccccc4)nc4cc(F)ccc4n23)CC1

>  <TGI>
> 96.4 µM

$$$$
>  <molecule>
C#CC1(O)CCC2[C@@H]3CCc4cc(Oc5nc(F)nc(-c6c7ccccc7cn6C)n5)ccc4C3CC[C@@]21C (stereo partly specified)

>  <TGI>
> 100 µM

$$$$

Now take the following molecule into account.
Ask: Entry O=C(Nc1ccccc1O)c1ccc(NS(=O)(=O)c2cccc3cccnc23)cc1 has what TGI?
Reply: 7.29 µM

###

Catalogue of TGI values
test system: NCI-H23 lung; assay: NCI tumour cell line growth inhibition, 48 h

>  <compound>
C=C1C(=O)O[C@H]2[C@H]1CC/C(COC(=O)NCCc1c[nH]c3ccc(Cl)cc13)=C\CC[C@@]1(C)O[C@@H]21

>  <TGI>
3.49 µM

$$$$
>  <compound>
CC(C)/C(=N\[N+](C)(C)C)c1ccccc1

>  <TGI>
> 100 µM

$$$$
>  <compound>
Cc1ccc(-c2nc(-c3cn(C)c4ncccc34)cs2)cc1

>  <TGI>
31.3 µM

$$$$

Ask: # value lookup — system NCI-H23 lung, readout TGI, item c1ccc2c(c1)ccn1ccc3c4ccccc4nc-3c21
Reply: 2.12 µM

Ask: Checklist item: TGI tested on NCI-H23 lung, entry COc1ccc(C(=O)N/N=C/c2c(C)n(C)n(-c3ccccc3)c2=O)cc1 , value?
Reply: > 100 µM

Ask: API: value(readout= TGI, system= NCI-H23 lung, query= C=CCCCCOC1C=CC(O)C(CO)O1 (centres undefined) )
Reply: > 100 µM

Ask: Hello, I am looking for reported TGI with NCI-H23 lung for O=C(NCCNc1nccc(-c2c(-c3cccc(O)c3)nc3sccn23)n1)c1ccccc1 . Could you help?
Reply: 30.7 µM

Ask: Form field - read-out: TGI; system: NCI-H23 lung; submitted item: O=S(=O)(O)c1ccc2c(N=Nc3ccc(Cl)cc3)c(O)ccc2c1
Reply: > 100 µM

Ask: Give the reported TGI for O=[N+]([O-])/C(C(Cl)=C(Cl)Cl)=C(\N1CCCCC1)n1nnc2ccccc21 (system: NCI-H23 lung).
Reply: 38.8 µM

Ask: Please state recorded TGI (tested on NCI-H23 lung) of COc1ccc(/C=C\c2cc(OC)c(OC)c(OC)c2)cc1OCC(=O)Nc1ccc2nc(C)sc2c1
Reply: 7.95 µM

Ask: For NCI-H23 lung, provide TGI of CCN(CC)c1ccc2cc(C(=O)Nc3ccc(C)cc3)c(=N)oc2c1 please.
Reply: > 100 µM

Ask: Give TGI (NCI-H23 lung) of the following compound: CC(CN(C)C)C(=O)c1ccccc1 (centres undefined)
Reply: 68 µM

Ask: Recorded TGI for CN(/N=C/c1cccc2cccnc12)c1c([N+](=O)[O-])cc([N+](=O)[O-])cc1[N+](=O)[O-] with NCI-H23 lung, please?
Reply: > 100 µM

Ask: Notebook entry, NCI-H23 lung assay: TGI of CC[C@H](C)C1=C(O)[N@+]2([O-])Oc3ccc(-c4c(O)c(O)c(-c5ccc(O)cc5)c(OC(C)=O)c4OC(C)=O)cc3O[C@]2([C@@H](C)CC)C(=O)N1O = ?
Reply: > 50 µM

###

The entries below are paired with their reported TGI.
tested on: LOX IMVI melanoma; experiment: NCI tumour cell line growth inhibition, 48 h
Provide the reading as a plain figure in µM.

>  <smiles.text>
COC(=O)/C=C\C(C#N)(C#N)N=Cc1sccc1C

>  <TGI, µM>
3.31

$$$$

Ask: Any idea what its TGI is? The molecule is CC1=C[C@H]2C[C@H](C)[C@H]3CC[C@H](C)[C@]4(C1)C(=O)C(O)=C(C)C(=O)[C@@]324
Reply: 51.1

Ask: What value of TGI has been reported for the following molecule? CCN(CC)CCn1[nH]c2c3ccc(=O)cc3sc3c(NCCN)ccc1c32
Reply: 1.03

Ask: Would you mind telling me what TGI value was observed for O=C(OC/C=C1C=C(OC(=O)c2ccccc2)/C(=N/N(C(=O)c2ccccc2)c2ccccc2)O\1)c1ccccc1 ?
Reply: 14.1

###

system: MDA-N; assay: NCI tumour cell line growth inhibition, 48 h
reported.property: TGI

Consider the following illustrative entries.
>  <compound>
CCOC(=O)Cc1cnc(NC(NC(=O)CC)(C(F)(F)F)C(F)(F)F)s1

>  <TGI>
> 100 µM

$$$$
>  <compound>
COc1nc2c(c(=O)n1C)N=C(c1ccc(Cl)cc1)CC(c1ccccc1)N2 (centres undefined)

>  <TGI>
37.8 µM

$$$$
>  <compound>
CCN(CC)c1ccc2cc(C(=O)Nc3ccc(C)cc3)c(=N)oc2c1

>  <TGI>
> 100 µM

$$$$
>  <compound>
C=CCc1cc(C(Cc2ccccc2)NC(C)C)cc(OCc2ccccc2)c1OCc1ccccc1 (centres undefined)

>  <TGI>
25.8 µM

$$$$

Ask: For the compound Cc1cccc(NC(=O)/C=C/c2ccc([N+](=O)[O-])cc2)c1 , what TGI is on record?
Reply: > 52.2 µM

Ask: What TGI value was documented for this compound, CSc1c(CC(=O)Nc2ccc(Cl)cc2)n(Cc2ccccc2)c2ccccc12 ?
Reply: > 100 µM

###

system: SK-MEL-5 melanoma; test: NCI tumour cell line growth inhibition, 48 h
Below, each entry is listed alongside its reported TGI.
Record the value in µM, omitting the unit from your answer.

>  <molecule>
CC1=C(C)C2(O)C(=C(C)C1=O)/C(=C(/O)c1ccccc1)c1nc3ccccc3n12 (centres undefined)

>  <reported.property>
TGI

>  <u>
µM

>  <assay.value>
31.3

$$$$
>  <molecule>
O=C(/C=C/C12c3ccccc3C(c3ccccc31)C1C(=O)NC(=O)C12)c1ccc(Cl)cc1 (centres undefined)

>  <reported.property>
TGI

>  <u>
µM

>  <assay.value>
3.08

$$$$
>  <molecule>
COC(=O)[C@@H]1CC(C(CN)c2cn(C(=O)OC(C)(C)C)c3ccccc23)C(=O)N1C(=O)OC(C)(C)C (some centres undefined)

>  <reported.property>
TGI

>  <u>
µM

>  <assay.value>
31.6

$$$$
>  <molecule>
CCN(CC)CCCNc1[nH]ncc2c(C)c3nc4ccc(OC)cc4c3cc12

>  <reported.property>
TGI

>  <u>
µM

>  <assay.value>
2.83

$$$$

Ask: Using the record for COP(=O)(OC)/C(=C/c1cn(C(c2ccccc2)(c2ccccc2)c2ccccc2)cn1)NC=O , report its TGI.
Reply: 27.5
